molecular target: GABA-A receptor; alpha-3/beta-3/gamma-2 (Homo sapiens) (UniProt P18507+P28472+P34903); test: Efficacy at human recombinant GABAA alpha-3-beta-3-gamma-2 receptor expressed in Xenopus laevis oocytes by two electrode voltage clamp method relative to GABA; assay type: cell-based; conditions: Oocyte
metric.name: Efficacy

{"entry.smiles": "c1ccc(-c2nnc3c4c(c(OCc5ccccn5)nn23)C2CCC4CC2)cc1", "metric.name": "Efficacy", "test.value": "38%"}
{"entry.smiles": "c1ccc(-c2cc3nnc(-c4ccccc4)n3nc2OCc2ccccn2)cc1", "metric.name": "Efficacy", "test.value": "77%"}
{"entry.smiles": "Cn1ncnc1COc1nn2c(-c3ccccc3)nnc2cc1C1CCCCC1", "metric.name": "Efficacy", "test.value": "109%"}
{"entry.smiles": "Cn1ncnc1COc1nn2c(-c3ccccc3)nnc2cc1-c1ccccc1", "metric.name": "Efficacy", "test.value": "115%"}
